target: KRAS G12D (Homo sapiens, UniProt P01116+P62937, G12D); assay: Disruption of BRAF RBD interaction with Ras (FRET / MOA assay, with Cyclophilin A); assay type: biochemical; conditions: read-out: KRAS G12D FRET data, IC50
Sequence (P01116 1-169 isoform P01116-2 G12D limits assumed): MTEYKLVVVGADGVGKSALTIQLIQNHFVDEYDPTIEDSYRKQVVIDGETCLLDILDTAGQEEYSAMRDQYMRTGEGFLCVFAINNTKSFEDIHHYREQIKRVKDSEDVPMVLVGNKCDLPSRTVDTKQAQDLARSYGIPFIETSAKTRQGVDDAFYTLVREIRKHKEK
Sequence (P62937 whole entry): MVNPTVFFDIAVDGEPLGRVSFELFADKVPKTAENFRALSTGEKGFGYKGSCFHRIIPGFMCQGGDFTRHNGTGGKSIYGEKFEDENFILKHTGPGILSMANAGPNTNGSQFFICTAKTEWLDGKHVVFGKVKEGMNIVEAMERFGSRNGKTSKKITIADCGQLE
measure: IC50

Past entries and their recorded results:
Enquiry: Any idea what IC50 came out for CCn1c(-c2cccnc2[C@H](C)OC)c2c3cc(ccc31)-c1csc(n1)C[C@H](NC(=O)[C@H](C(C)C)N(C)C(=O)N(C)[C@@H]1CCCN(C)C1)C(=O)N1CCC[C@H](N1)C(=O)OCC(C)(C)C2 on KRAS G12D (Homo sapiens, UniProt P01116+P62937, G12D)?
Return: 100 to 1000 nM

Enquiry: Lookup: IC50 / KRAS G12D (Homo sapiens, UniProt P01116+P62937, G12D) / C=CC(=O)N1CC[C@H](C(=O)N(C)[C@H](C(=O)N[C@H]2Cc3cc(O)cc(c3)-c3ccc4c(c3)c(c(-c3cccnc3[C@H](C)OC)n4C)CC(C)(C)COC(=O)[C@@H]3CCCN(N3)C2=O)C(C)C)C1
Return: > 10000 nM

Enquiry: Lab note: need IC50 with KRAS G12D (Homo sapiens, UniProt P01116+P62937, G12D) for entry CCn1c(-c2cc(N3CCN(C)CC3)cnc2[C@H](C)OC)c2c3cc(ccc31)-c1cc(O)cc(c1)C[C@H](NC(=O)[C@H](C(C)C)N(C)C(=O)[C@@H]1OCC[C@@H]1c1ccccc1)C(=O)N1CCC[C@H](N1)C(=O)OCC(C)(C)C2 (atropisomer, axis not shown) , please look it up.
Return: 10 to 100 nM

# evaluate next
Enquiry: Return IC50 measured with KRAS G12D (Homo sapiens, UniProt P01116+P62937, G12D) given this molecule: CCn1c(-c2cccnc2[C@H](C)OC)c2c3cc(ccc31)-c1cc(O)cc(c1)C[C@H](NC(=O)[C@H](C(C)C)N(C)C(=O)[C@@H]1CCNC1)C(=O)N1CCC[C@H](N1)C(=O)OCC(C)(C)C2
Return: 10 to 100 nM
